System: BT-20
experimental_protocol: relative cell number vs DMSO control (72 h) (% of DMSO); higher = less growth inhibition (more cells)
protocol_conditions: sgRNA knockout: sgNT, 1000 nM
Use Fulfilled when the recorded relative cell number is no lower than 70; use Not fulfilled when it is lower.

Use these answered entries as a reference point.
{"given_smiles": "Cc1cnc(Nc2ccc(OCCN3CCCC3)cc2)nc1Nc1cccc(S(=O)(=O)NC(C)(C)C)c1", "assigned_category": "Fulfilled"}
{"given_smiles": "O=C(/C=C/c1ccc(O)cc1)c1ccc(O)cc1O", "assigned_category": "Fulfilled"}
{"given_smiles": "N[C@@H](CC(=O)N1CCn2c(nnc2C(F)(F)F)C1)Cc1cc(F)c(F)cc1F", "assigned_category": "Fulfilled"}

(Q) Please indicate if the recorded relative cell number for Nc1ccccc1NC(=O)c1ccc(CNC(=O)OCc2cccnc2)cc1 meets or exceeds 70.
(A) Not fulfilled

These measurements were taken from the supplement of paper PMC7661543.
